- Test system: gastric mucosa
- procedure-details: Gastric Hemorrhage Lesion Formation Assay (GHLF) / gastric irritation
- Assay type: in vivo, rat (Sprague-Dawley, male)
- condition-context: 30 mg/kg, oral, fasted, 4 h
experimental-readout: Ave. No. of lesions per Animal

• CSc1ccc(C(=O)c2c(C)cc(CC(=O)O)n2C)n1C [drawing 24] = 0
• COc1cc(CC(=O)O)n(C)c1C(=O)c1ccc(SC)cc1 = 0.8
• COc1cc(CC(=O)O)n(C)c1C(=O)c1ccc(C)cc1 = 0
• COc1cc(CC(=O)O)n(C)c1C(=O)c1ccc(C(F)(F)F)cc1 = 0
• COc1cc(CC(=O)O)n(C)c1C(=O)c1ccc(Cl)cc1 = 0
• CSc1ccc(C(=O)c2c(C)cc(CC(=O)OCCNC(C)=O)n2C)n1C = 0

* * *

- System: gastric mucosa
- procedure-details: Gastric Hemorrhage Lesion Formation Assay (GHLF) / gastric irritation
- Format: in vivo, rat (Sprague-Dawley, male)
- condition-context: 10 mg/kg, oral, fasted, 4 h; animals with at least one lesion/group
experimental-readout: Animal with Lesion

• COc1cc(CC(=O)O)n(C)c1C(=O)c1ccc(C(F)(F)F)cc1 [4-CF3C6 H5; OCH3; CH3] = 0/6
• COc1cc(CC(=O)O)n(C)c1C(=O)c1ccc(C)cc1 [4-CH3C6 H5; OCH3; CH3] = 0/6
• CSc1ccc(C(=O)c2c(C)cc(CC(=O)O)n2C)n1C [drawing 24] = 0/6
• CSc1ccc(C(=O)c2c(C)cc(CC(=O)OCCNC(C)=O)n2C)n1C = 0/6
• COc1cc(CC(=O)O)n(C)c1C(=O)c1ccc(SC)cc1 [4-CH3 SC6 H5; CH3 O; CH3] = 3/6
• COc1cc(CC(=O)O)n(C)c1C(=O)c1ccc(Cl)cc1 [4-ClC6 H5; CH3 O; CH3] = 0/5

Ref: patent US4434175A
